// data source = ChEMBL document CHEMBL1140149

# Test Method Notes: in vivo
# Experimental Setup: rat
Endpoint Label: clearance (mL/min/kg)
One number for each entry, in mL/min/kg.

Q: // returns reported clearance for input `Cc1nc2ccccc2n1[C@H]1C[C@H]2CC[C@@H](C1)N2CCC1(c2cccc(Cl)c2)CCN(C(=O)C(C)(C)C)CC1`
Result: 21

----------
# Test Method Notes: Bioavailability in rat at 1 mg/kg, po
# Experimental Setup: in vivo
Endpoint Label: bioavailability (%)
Give bare numbers, in %.

Q: // returns reported bioavailability for input `Cc1nc2ccccc2n1[C@H]1C[C@H]2CC[C@@H](C1)N2CCC1(c2cccc(Cl)c2)CCN(C(=O)C(C)(C)C)CC1`
Result: 26
